Measured IC50 accompanies every entry in the list below.
# tested.system: CXCR-4 transfected U87 cell line (U87.CXCR4) (Homo sapiens (Human), UniProt P61073)
# Sequence (P61073 whole entry): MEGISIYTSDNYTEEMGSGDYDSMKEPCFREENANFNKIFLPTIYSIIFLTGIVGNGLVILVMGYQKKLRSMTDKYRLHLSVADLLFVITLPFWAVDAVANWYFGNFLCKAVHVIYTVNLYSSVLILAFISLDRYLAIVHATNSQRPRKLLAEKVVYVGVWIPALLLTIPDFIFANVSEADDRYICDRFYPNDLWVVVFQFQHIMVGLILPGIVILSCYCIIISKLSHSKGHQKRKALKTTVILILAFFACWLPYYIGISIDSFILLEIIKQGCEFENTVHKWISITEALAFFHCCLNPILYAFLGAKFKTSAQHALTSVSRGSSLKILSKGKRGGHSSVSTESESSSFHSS
# method: Intracellular CXCL-12-induced calcium mobilization assay (FLIPR)
# details: U87.CXCR4 cells, CXCL-12 25-50 ng/mL; read-out: IC50 CXCL-12 Ca2+ flux U87.CXCR4+
quantity.name: IC50

> print(dat)
                                    compound  value.reported
 1  Cc1cccnc1[C@@H]1CCC[C@H](c2cn3c(N4CC5CCC(C4)N5C)cccc3n2)N1C [Compound I-68]  0.01 to 100 nM
 2  Cc1cccnc1[C@@H]1CCC[C@H](c2cn3ccccc3n2)N1CCc1ccccn1 [Compound I-8]  0.01 to 100 nM
 3  CC(C)c1cccnc1[C@@H]1CCC[C@H](c2nc3cccc(N4CCN(C)CC4)n3c2CO)N1C [Compound I-74]       ≥ 1000 nM
 4  CCN1[C@@H](c2nc3cccc(N4CCN(C(C)C)CC4)n3c2Br)CCC[C@H]1c1ncccc1C [Compound I-45]       ≥ 1000 nM
 5  Cc1cccnc1[C@@H]1CCC[C@H](c2cn3c(-c4ccncc4)cccc3n2)N1C [Compound I-5]  100 to 1000 nM
 6  CC(C)N1CCN(c2cccc3nc([C@H]4CCC[C@@H](c5ncccc5Cl)N4C)cn23)CC1 [Compound I-150]       ≥ 1000 nM
 7  C#Cc1c([C@H]2CCC[C@@H](c3ncccc3C)N2C)nc2cccc(N3CCN(C)CC3)n12 [Compound I-89]  0.01 to 100 nM
 8  Cc1cccnc1[C@@H]1CCC[C@H](c2cn3c(-c4cccnc4)cccc3n2)N1 [Compound I-215]       ≥ 1000 nM
 9  CO[C@H](c1c([C@H]2CCC[C@@H](c3ncccc3C)N2C)nc2ccccn12)C1CCN(C)CC1 [Compound I-104]  100 to 1000 nM
10  CN1CCN(c2cccc3nc([C@H]4CCC[C@@H](c5ncccc5C5CC5)N4)cn23)CC1 [Compound I-179]  0.01 to 100 nM
11  CN(C)C1CCN(c2cccc3nc([C@H]4CCC[C@@H](c5ncccc5Cl)N4C)c(Cl)n23)CC1 [Compound I-132]  100 to 1000 nM
12  Cc1cccnc1[C@@H]1CCC[C@H](c2nc3ccccn3c2[C@H](O)C2CCN(C)CC2)N1C [Compound I-55]       ≥ 1000 nM
13  CCN1CCN(c2cccc3nc([C@H]4CCC[C@@H](c5ncccc5C)N4C)c(CO)n23)CC1 [Compound I-61]  0.01 to 100 nM
14  CCN1CCN(Cc2c([C@H]3CCC[C@@H](c4ncccc4C)N3C)nc3ccccn23)CC1 [Compound I-40]  0.01 to 100 nM
15  CN1CCN(c2cccc3nc([C@H]4CCC[C@@H](c5ncccc5C(F)(F)F)N4C)cn23)CC1 [Compound I-80]  100 to 1000 nM

Where do these numbers come from? They come from patent US10759796B2.
